Assayed Target: recombinant human enzyme CK-1ε (Homo sapiens, UniProt P49674)
Construct: purchased Invitrogen
Sequence (P49674 whole entry): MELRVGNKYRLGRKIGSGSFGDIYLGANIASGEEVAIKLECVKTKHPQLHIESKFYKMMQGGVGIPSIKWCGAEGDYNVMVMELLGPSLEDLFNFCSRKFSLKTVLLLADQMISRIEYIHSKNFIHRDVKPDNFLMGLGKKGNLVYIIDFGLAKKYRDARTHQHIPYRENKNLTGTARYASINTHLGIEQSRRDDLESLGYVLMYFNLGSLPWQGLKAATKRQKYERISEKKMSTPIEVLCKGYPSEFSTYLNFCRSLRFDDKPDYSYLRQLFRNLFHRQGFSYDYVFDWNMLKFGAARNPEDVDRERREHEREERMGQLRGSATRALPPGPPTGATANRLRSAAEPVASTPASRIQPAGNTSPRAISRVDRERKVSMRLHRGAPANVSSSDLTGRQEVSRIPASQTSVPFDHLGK
Run Description: Enzyme inhibition assay, Luminometer Kinase-GLO method, CK-1ε
Assay type: biochemical
Observation Type: inhibition at 10 µM (%)

(P) COc1ccc2nc(NC(=O)Cc3ccccc3Cl)sc2c1 [Compound 49]
(Q) O=C(CNC(=O)c1ccccc1)Nc1nc2ccccc2s1 [Compound 36]
(R) CCCCNS(=O)(=O)c1ccc2nc(NC(=O)C(c3ccccc3)c3ccccc3)sc2c1 [Compound 43]
Ask: Endpoint returns the given molecules ordered by ascending inhibition at 10 µM. Reply with the labels, ordered as the question asks.
Reply: R, P, Q

(a) COc1ccc2nc(NC(=O)Cc3ccccc3OC)sc2c1 [Compound 51]
(b) CCOc1ccc2nc(NC(=O)Cc3ccccc3Cl)sc2c1 [Compound 50]
Ask: Higher inhibition at 10 µM between a and b ? Returns: label corresponding to the selected item.
Reply: a

(a) COc1ccc(NC(=O)Nc2nc3ccc(C(F)(F)F)cc3s2)cc1 [Compound 46]
(b) NS(=O)(=O)c1ccc2nc(NC(=O)C(c3ccccc3)c3ccccc3)sc2c1 [Compound 41]
(c) O=C(COCc1ccccc1)Nc1nc2ccccc2s1 [Compound 35]
Ask: Sort these molecules on inhibition at 10 µM so the largest reading comes first. Reply with the labels, ordered as the question asks.
Reply: c, a, b

* * *

Assayed Target: recombinant human enzyme CK-1ε (Homo sapiens)
Run Description: Enzyme inhibition assay, Luminometer Kinase-GLO method, CK-1ε
Test Settings: casein substrate, 4 μM ATP, 60 minutes at 30° C.; read-out: Inhibitory Concentration 50 (IC50) CK-1ε
Observation Type: IC50 (µM)

O=C(Cc1ccc(Cl)c(Cl)c1)Nc1nc2ccc(OC(F)(F)F)cc2s1 [Compound 28] = 0.93

(P) COc1ccccc1CC(=O)Nc1nc2ccc(C)cc2s1 [Compound 30]
(Q) COc1cccc(CC(=O)Nc2nc3ccc(OC)cc3s2)c1 [Compound 25]
(R) COc1ccc2nc(NC(=O)Cc3cc(OC)c(OC)c(OC)c3)sc2c1 [Compound 55]
Ask: List the 3 entries from lowest IC50 to highest IC50 value. Reply with the labels, ordered as the question asks.
Reply: Q, P, R
(Q: 2.43 µM, P: 4.93 µM, R: 17.7 µM)

* * *

Assayed Target: recombinant human enzyme CK-1ε (Homo sapiens)
Run Description: Enzyme inhibition assay, Luminometer Kinase-GLO method, CK-1ε
Test Settings: casein substrate, 4 μM ATP, 60 minutes at 30° C.; read-out: Inhibitory Concentration 50 (IC50) CK-1ε
pIC50: −log10 of the molar value.
Observation Type: pIC50

O=C(Nc1nc2ccc(C(F)(F)F)cc2s1)C(c1ccccc1)c1ccccc1 = 5.56
CCOC(=O)c1ccc2nc(NC(=O)C(c3ccccc3)c3ccccc3)sc2c1 = 5.80
O=C(Cc1ccccc1)Nc1nc2ccc(C(F)(F)F)cc2s1 = 6.12
COc1ccc2nc(NC(=O)Cc3ccc(Cl)c(Cl)c3)sc2c1 = 4.78
COc1ccccc1CC(=O)Nc1nc2ccc(Cl)cc2s1 = 5.94
O=C(Cc1ccc(F)cc1)Nc1nc2ccccc2s1 = 5.51
CCOc1ccc2nc(NC(=O)Cc3ccc(OC)cc3)sc2c1 = 5.02

(A) O=C(Cc1ccccc1Cl)Nc1nc2ccc(C(F)(F)F)cc2s1
(B) COc1ccc2nc(NC(=O)Cc3cccc(Cl)c3)sc2c1
Ask: Kindly compare A with B and tell me which has the lower pIC50 figure. Returns: label corresponding to the selected item.
Reply: A
(A: 5.11, B: 5.43)

* * *

Assayed Target: recombinant human enzyme CK-1ε (Homo sapiens, UniProt P49674)
Run Description: Enzyme inhibition assay, Luminometer Kinase-GLO method, CK-1ε
Test Settings: casein substrate, 4 μM ATP, 60 minutes at 30° C.; read-out: Inhibitory Concentration 50 (IC50) CK-1ε
Observation Type: IC50 (µM)

Here are 3 compounds together with their reported answers.
COc1ccc2nc(NC(=O)C(c3ccccc3)c3ccccc3)sc2c1 = 5.07
O=C(CC(c1ccccc1)c1ccccc1)Nc1nc2ccccc2s1 = 9.73
O=C(CCc1ccccc1)Nc1nc2ccc([N+](=O)[O-])cc2s1 = 9.4

(1) COc1ccc(OC)c(CC(=O)Nc2nc3ccc(C(F)(F)F)cc3s2)c1
(2) O=C(Cc1cccc(Cl)c1)Nc1nc2ccc(OC(F)(F)F)cc2s1
Ask: Higher IC50 between 1 and 2 ? Returns: label corresponding to the selected item.
Reply: 1
(1: 3.14 µM, 2: 1.02 µM)

* * *

Assayed Target: recombinant human enzyme CK-1ε (Homo sapiens, UniProt P49674)
Run Description: Enzyme inhibition assay, Luminometer Kinase-GLO method, CK-1ε
Test Settings: casein substrate, 4 μM ATP, 60 minutes at 30° C.; read-out: Inhibitory Concentration 50 (IC50) CK-1ε
Observation Type: IC50 (µM)

Here are 3 compounds together with their reported answers.
CCOc1ccc2nc(NC(=O)Cc3cccc(OC)c3)sc2c1 = 8.97
Cc1ccc2nc(NC(=O)Cc3cccc(Cl)c3)sc2c1 = 0.88
O=C(Cc1cccc(Cl)c1)Nc1nc2ccc(C(F)(F)F)cc2s1 = 0.84

(a) O=C(Cc1ccc(Cl)c(Cl)c1)Nc1nc2ccc(C(F)(F)F)cc2s1
(b) O=C(Cc1ccc(Cl)cc1)Nc1nc2ccc(C(F)(F)F)cc2s1
Ask: Higher IC50 between a and b ? Returns: label corresponding to the selected item.
Reply: a
(a: 0.87 µM, b: 0.55 µM)

* * *

Assayed Target: recombinant human enzyme CK-1δ (Homo sapiens)
Run Description: Enzyme inhibition assay, Luminometer Kinase-GLO method, CK-1δ
Test Settings: casein substrate, 4 μM ATP, 60 minutes at 30° C.; read-out: Inhibitory Concentration 50 (IC50) CK-1δ
pIC50: −log10 of the molar value.
Observation Type: pIC50

CCOc1ccc2nc(NC(=O)Cc3cccc(Cl)c3)sc2c1 [Compound 48] = 5.92
COc1ccccc1CC(=O)Nc1nc2ccc(Cl)cc2s1 [Compound 31] = 6.49
COc1cc(CC(=O)Nc2nc3ccc(C(F)(F)F)cc3s2)cc(OC)c1OC [Compound 10] = 7.82
COc1cc(CC(=O)Nc2nc3ccc(OC(F)(F)F)cc3s2)cc(OC)c1OC [Compound 11] = 7.10
COc1ccc2nc(NC(=O)Cc3ccc(Cl)cc3)sc2c1 [Compound 21] = 6.12

(A) COc1ccccc1CC(=O)Nc1nc2ccc(F)cc2s1 [Compound 59]
(B) O=C(Nc1cccc(Cl)c1)Nc1nc2ccc(C(F)(F)F)cc2s1 [Compound 24]
(C) COc1cccc(CC(=O)Nc2nc3ccc(C(F)(F)F)cc3s2)c1 [Compound 6]
(D) COc1ccccc1CC(=O)Nc1nc2ccc(C)cc2s1 [Compound 30]
(E) COc1ccc(NC(=O)Nc2nc3ccc(C(F)(F)F)cc3s2)cc1 [Compound 46]
Ask: List the 5 entries from lowest pIC50 to highest pIC50 value. Reply with the labels, ordered as the question asks.
Reply: E, A, B, D, C

* * *

Assayed Target: recombinant human enzyme CK-1δ (Homo sapiens, UniProt P48730)
Construct: purchased Millipore Iberica SAU
Sequence (P48730 whole entry): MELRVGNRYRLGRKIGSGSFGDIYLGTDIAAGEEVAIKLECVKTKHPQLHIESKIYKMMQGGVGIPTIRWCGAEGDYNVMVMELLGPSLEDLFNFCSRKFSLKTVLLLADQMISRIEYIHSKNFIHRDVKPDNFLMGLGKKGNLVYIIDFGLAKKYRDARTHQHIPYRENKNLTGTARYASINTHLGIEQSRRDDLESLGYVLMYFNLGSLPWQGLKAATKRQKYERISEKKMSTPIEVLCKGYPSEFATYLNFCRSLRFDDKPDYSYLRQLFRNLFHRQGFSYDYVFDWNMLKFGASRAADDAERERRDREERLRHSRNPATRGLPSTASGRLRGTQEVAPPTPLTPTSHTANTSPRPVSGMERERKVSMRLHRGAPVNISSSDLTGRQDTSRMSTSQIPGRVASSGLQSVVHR
Run Description: Enzyme inhibition assay, Luminometer Kinase-GLO method, CK-1δ
Type: biochemical
Test Settings: casein substrate, 4 μM ATP, 60 minutes at 30° C.; read-out: Inhibitory Concentration 50 (IC50) CK-1δ
pIC50: −log10 of the molar value.
Observation Type: pIC50

Here are 5 compounds together with their reported answers.
COc1ccc(CC(=O)Nc2nc3ccc(OC)cc3s2)cc1 = 6.24
O=C(Cc1cccc(Cl)c1)Nc1nc2ccc(C(F)(F)F)cc2s1 = 7.64
CCOc1ccc2nc(NC(=O)Cc3ccc(OC)cc3)sc2c1 = 5.96
COc1ccc(CC(=O)Nc2nc3ccc(Cl)cc3s2)cc1 = 7.15
CCOc1ccc2nc(NC(=O)Cc3ccccc3Cl)sc2c1 = 4.76

(a) CCN(CC)S(=O)(=O)c1ccc2nc(NC(=O)C(c3ccccc3)c3ccccc3)sc2c1
(b) COc1ccc2nc(NC(=O)C(c3ccccc3)c3ccccc3)sc2c1
Ask: Higher pIC50 between a and b ? Returns: label corresponding to the selected item.
Reply: b

* * *

Run Description: in vitro
Test Settings: pig, PAMPA, pH 7.4
Observation Type: Papp at […] (×10⁻⁶ cm/s)

Here are 2 compounds together with their reported answers.
O=C(Cc1ccccc1)Nc1nc2ccccc2s1 [Compound 14, N-(benzothiazole-2-yl)-2-phenylacetamide] = 12.7
Cc1ccc2nc(NC(=O)Cc3cccc(Cl)c3)sc2c1 = 5.6

(1) O=C(Cc1cccc(Cl)c1)Nc1nc2ccc(C(F)(F)F)cc2s1
(2) COc1ccc(CC(=O)Nc2nc3ccc(C(F)(F)F)cc3s2)cc1
Ask: Higher Papp at […] between 1 and 2 ? Returns: label corresponding to the selected item.
Reply: 2
(2: 14.6 ×10⁻⁶ cm/s, 1: 5.9 ×10⁻⁶ cm/s)

* * *

Run Description: in vitro
Test Settings: pig, PAMPA, pH 7.4
Observation Type: Papp at […] (×10⁻⁶ cm/s)

Here are 3 compounds together with their reported answers.
CN(C)CCCN1c2ccccc2Sc2ccccc21 [Promazine, reference compound] = 8.5
COc1ccccc1CC(=O)Nc1nc2ccc(C(F)(F)F)cc2s1 = 11.3
COc1cc(CC(=O)Nc2nc3ccc(C(F)(F)F)cc3s2)cc(OC)c1OC = 10.6

(a) O=C(Cc1ccc(Cl)cc1)Nc1nc2ccc(C(F)(F)F)cc2s1
(b) COc1ccccc1CC(=O)Nc1nc2ccc(C)cc2s1
Ask: Kindly compare a with b and tell me which has the lower Papp at […] figure. Returns: label corresponding to the selected item.
Reply: b
(b: 6.2 ×10⁻⁶ cm/s, a: 9.6 ×10⁻⁶ cm/s)
